- Assayed Target: human μ-opiate receptor (Homo sapiens, UniProt P35372)
- Construct: purchased PerkinElmer Life Sciences, Zaventem, Belgium RB-HOM; host or cells: CHO-K1 cells (recombinant expression; membrane preparation)
- Sequence (P35372 whole entry): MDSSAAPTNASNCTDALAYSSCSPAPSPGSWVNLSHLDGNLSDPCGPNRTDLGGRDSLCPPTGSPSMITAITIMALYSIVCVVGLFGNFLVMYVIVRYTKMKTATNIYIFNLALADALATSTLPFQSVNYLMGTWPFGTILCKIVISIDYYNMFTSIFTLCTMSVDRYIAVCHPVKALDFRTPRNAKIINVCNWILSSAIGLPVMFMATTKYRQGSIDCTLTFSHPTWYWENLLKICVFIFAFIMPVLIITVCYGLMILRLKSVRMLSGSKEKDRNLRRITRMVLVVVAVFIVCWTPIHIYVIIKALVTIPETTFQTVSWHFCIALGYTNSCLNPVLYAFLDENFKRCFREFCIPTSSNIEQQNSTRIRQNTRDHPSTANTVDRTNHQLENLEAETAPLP
- Experiment Summary: Affinity for the human μ-opiate receptor ([3H]-naloxone displacement, SPA)
- Settings: Table 2, Examples 11-161; test substance 1 μmole/l; inhibition of specific [3H]-naloxone binding; CHO-K1 membranes; read-out: μ-Opioid receptor, % inhibition [1 μM]
Readout Kind: inhibition at 1 µM (%)

Molecule | Observed Value
CCC(C)C1(C(=O)OC)N=CN(C2CCCCC2)C1CC1CCC(C(c2cccc(F)c2)N(C)C)CC1 (stereo not drawn) [Example 148] | 95
CCCN1C=NC(CCC(=O)OC)(C(=O)OC)C1CC1CCC(C(c2cccc(F)c2)N(C)C)CC1 (stereo not drawn) [Example 157] | 91
COC(=O)C1(CSCc2ccccc2)N=CN(C2CCCCC2)C1C1CCC(C(c2ccc(Cl)cc2)N(C)C)CC1 (stereo not drawn) [Example 52] | 99
COC(=O)C1(CSCc2ccccc2)N=CN(C2CCCCC2)C1CC1CCC(C(c2ccc(Cl)cc2)N(C)C)CC1 (stereo not drawn) [Example 56] | 97
COC(=O)CCC1(C(=O)OC)N=CN(C2CCCCC2)C1CC1CCC(C(c2cccc(F)c2)N(C)C)CC1 (stereo not drawn) [Example 147] | 98
COC(=O)C1(Cc2ccc(Cl)cc2)N=CN(CCc2ccccc2)C1C1CCC(C(c2ccc(Cl)cc2)N(C)C)CC1 (stereo not drawn) [Example 41] | 79
COC(=O)CCC1(C(=O)OC)N=CN(C2CCCCC2)C1CC1CCC(C(c2ccc(Cl)cc2)N(C)C)CC1 (stereo not drawn) [Example 53] | 96
CCCC1(C(=O)OC)N=CN(CCc2ccccc2)C1CC1CCC(C(c2ccc(F)cc2)N(C)C)CC1 (stereo not drawn) [Example 132] | 98
CCCCC1(C(=O)OC)N=CN(C2CCCCC2)C1CC1CCC(C(c2ccc(Cl)cc2)N(C)C)CC1 (stereo not drawn) [Example 19] | 96
CCCCN1C=NC(CCC(=O)OC)(C(=O)OC)C1CC1CCC(C(c2ccc(F)cc2)N(C)C)CC1 (stereo not drawn) [Example 76] | 93
COC(=O)C1(Cc2ccc(Cl)cc2)N=CN(CCc2ccccc2)C1C1CCC(C(c2cccc(F)c2)N(C)C)CC1 (stereo not drawn) [Example 38] | 84
COC(=O)CCC1(C(=O)OC)N=CN(CCc2ccccc2)C1C1CCC(C(c2cccc(F)c2)N(C)C)CC1 (stereo not drawn) [Example 91] | 85
COC(=O)C1(Cc2ccc(Cl)cc2)N=CN(C2CCCCC2)C1CC1CCC(C(c2ccc(Cl)cc2)N(C)C)CC1 (stereo not drawn) [Example 18] | 90
COC(=O)C1(C)N=CN(C2CCCCC2)C1CC1CCC(C(CCc2ccccc2)N(C)C)CC1 (stereo not drawn) [Example 110] | 67
CCCN1C=NC(CCSC)(C(=O)OC)C1CC1CCC(C(c2ccc(F)cc2)N(C)C)CC1 (stereo not drawn) [Example 119] | 90

---

- Assayed Target: human μ-opiate receptor (Homo sapiens, UniProt P35372)
- Construct: purchased PerkinElmer Life Sciences, Zaventem, Belgium RB-HOM; host or cells: CHO-K1 cells (recombinant expression; membrane preparation)
- Experiment Summary: Affinity for the human μ-opiate receptor ([3H]-naloxone displacement, SPA)
- Settings: Table 2, Examples 11-161; test substance 1 μmole/l; inhibition of specific [3H]-naloxone binding; CHO-K1 membranes; read-out: μ-Opioid receptor, % inhibition [1 μM]
# maps each entry to its inhibition at 1 µM
Readout Kind: inhibition at 1 µM (%)

Compound | Assayed Target | Observed Value
CCCN1C=NC(Cc2ccc(Cl)cc2)(C(=O)OC)C1C1CCC(C(c2ccc(Cl)cc2)N(C)C)CC1 (stereo not drawn) [Example 25] | human μ-opiate receptor (Homo sapiens, UniProt P35372) | 83
CCCN1C=NC(CCC)(C(=O)OC)C1CC1CCC(C(CCc2ccccc2)N(C)C)CC1 (stereo not drawn) [Example 120] | human μ-opiate receptor (Homo sapiens, UniProt P35372) | 62
COC(=O)C1(CSC)N=CN(C2CCCCC2)C1CC1CCC(C(c2cccc(F)c2)N(C)C)CC1 (stereo not drawn) [Example 149] | human μ-opiate receptor (Homo sapiens, UniProt P35372) | 99
CCC(C)C1(C(=O)OC)N=CN(C2CCCCC2)C1CC1CCC(C(c2ccc(F)cc2)N(C)C)CC1 (stereo not drawn) [Example 152] | human μ-opiate receptor (Homo sapiens, UniProt P35372) | 93
COC(=O)C1(CSCc2ccccc2)N=CN(CCc2ccccc2)C1C1CCC(C(c2cccc(F)c2)N(C)C)CC1 (stereo not drawn) [Example 92] | human μ-opiate receptor (Homo sapiens, UniProt P35372) | 95
COC(=O)C1(C)N=CN(CCc2ccccc2)C1CC1CCC(C(c2ccc(F)cc2)N(C)C)CC1 (stereo not drawn) [Example 134] | human μ-opiate receptor (Homo sapiens, UniProt P35372) | 92
CCCCN1C=NC(CSCc2ccccc2)(C(=O)OC)C1CC1CCC(C(c2ccc(Cl)cc2)N(C)C)CC1 (stereo not drawn) [Example 90] | human μ-opiate receptor (Homo sapiens, UniProt P35372) | 99
CCCCC1(C(=O)OC)N=CN(CCc2ccccc2)C1C1CCC(C(c2cccc(F)c2)N(C)C)CC1 (stereo not drawn) [Example 39] | human μ-opiate receptor (Homo sapiens, UniProt P35372) | 88
COC(=O)C1(CCSC)N=CN(Cc2ccccc2)C1CC1CCC(C(c2ccc(F)cc2)N(C)C)CC1 (stereo not drawn) [Example 142] | human μ-opiate receptor (Homo sapiens, UniProt P35372) | 97
CCC(C)C1(C(=O)OC)N=CN(C2CCCCC2)C1CC1CCC(C(c2ccc(Cl)cc2)N(C)C)CC1 (stereo not drawn) [Example 54] | human μ-opiate receptor (Homo sapiens, UniProt P35372) | 100
COC(=O)C1(CC(C)C)N=CN(C2CCCCC2)C1C1CCC(C(c2cccc(F)c2)N(C)C)CC1 (stereo not drawn) [Example 11] | human μ-opiate receptor (Homo sapiens, UniProt P35372) | 84
COC(=O)C1(C)N=CN(CCc2ccccc2)C1CC1CCC(C(CCc2ccccc2)N(C)C)CC1 (stereo not drawn) [Example 137] | human μ-opiate receptor (Homo sapiens, UniProt P35372) | 61
CCCCN1C=NC(C(=O)OC)(C(C)CC)C1CC1CCC(C(c2ccc(Cl)cc2)N(C)C)CC1 (stereo not drawn) [Example 88] | human μ-opiate receptor (Homo sapiens, UniProt P35372) | 98
COC(=O)C1(CC(C)C)N=CN(CCc2ccccc2)C1C1CCC(C(c2cccc(F)c2)N(C)C)CC1 (stereo not drawn) [Example 37] | human μ-opiate receptor (Homo sapiens, UniProt P35372) | 93
CCCCC1(C(=O)OC)N=CN(CCc2ccccc2)C1CC1CCC(C(c2ccc(Cl)cc2)N(C)C)CC1 (stereo not drawn) [Example 45] | human μ-opiate receptor (Homo sapiens, UniProt P35372) | 97
CCCCC1(C(=O)OC)N=CN(Cc2ccccc2)C1CC1CCC(C(c2ccc(Cl)cc2)N(C)C)CC1 (stereo not drawn) [Example 114] | human μ-opiate receptor (Homo sapiens, UniProt P35372) | 86
CCCCN1C=NC(CCSC)(C(=O)OC)C1CC1CCC(C(c2ccc(F)cc2)N(C)C)CC1 (stereo not drawn) [Example 126] | human μ-opiate receptor (Homo sapiens, UniProt P35372) | 98
COC(=O)C1(CC(C)C)N=CN(CCc2ccccc2)C1C1CCC(C(c2ccc(Cl)cc2)N(C)C)CC1 (stereo not drawn) [Example 40] | human μ-opiate receptor (Homo sapiens, UniProt P35372) | 95
COC(=O)C1(CSCc2ccccc2)N=CN(Cc2ccccc2)C1C1CCC(C(c2cccc(F)c2)N(C)C)CC1 (stereo not drawn) [Example 97] | human μ-opiate receptor (Homo sapiens, UniProt P35372) | 97
CCCN1C=NC(CSC)(C(=O)OC)C1CC1CCC(C(c2ccc(F)cc2)N(C)C)CC1 (stereo not drawn) [Example 160] | human μ-opiate receptor (Homo sapiens, UniProt P35372) | 74
CCCN1C=NC(CSCc2ccccc2)(C(=O)OC)C1CC1CCC(C(c2ccc(F)cc2)N(C)C)CC1 (stereo not drawn) [Example 161] | human μ-opiate receptor (Homo sapiens, UniProt P35372) | 91
COC(=O)CCC1(C(=O)OC)N=CN(C2CCCCC2)C1CC1CCC(C(c2ccc(F)cc2)N(C)C)CC1 (stereo not drawn) [Example 151] | human μ-opiate receptor (Homo sapiens, UniProt P35372) | 95
COC(=O)C1(Cc2ccc(Cl)cc2)N=CN(C2CCCCC2)C1CC1CCC(C(c2cccs2)N(C)C)CC1 (stereo not drawn) [Example 20] | human μ-opiate receptor (Homo sapiens, UniProt P35372) | 95
CCCN1C=NC(CCSC)(C(=O)OC)C1CC1CCC(C(c2cccc(F)c2)N(C)C)CC1 (stereo not drawn) [Example 112] | human μ-opiate receptor (Homo sapiens, UniProt P35372) | 95
CCC(C)C1(C(=O)OC)N=CN(CCc2ccccc2)C1CC1CCC(C(c2cccc(F)c2)N(C)C)CC1 (stereo not drawn) [Example 81] | human μ-opiate receptor (Homo sapiens, UniProt P35372) | 76
CCCN1C=NC(Cc2ccc(Cl)cc2)(C(=O)OC)C1CC1CCC(C(c2ccc(Cl)cc2)N(C)C)CC1 (stereo not drawn) [Example 27] | human μ-opiate receptor (Homo sapiens, UniProt P35372) | 96
COC(=O)C1(CC(C)C)N=CN(Cc2ccccc2)C1C1CCC(C(c2ccc(Cl)cc2)N(C)C)CC1 (stereo not drawn) [Example 48] | human μ-opiate receptor (Homo sapiens, UniProt P35372) | 93
COC(=O)C1(CSCc2ccccc2)N=CN(CCc2ccccc2)C1CC1CCC(C(c2cccc(F)c2)N(C)C)CC1 (stereo not drawn) [Example 82] | human μ-opiate receptor (Homo sapiens, UniProt P35372) | 95
COC(=O)C1(C)N=CN(Cc2ccccc2)C1CC1CCC(C(c2ccc(F)cc2)N(C)C)CC1 (stereo not drawn) [Example 143] | human μ-opiate receptor (Homo sapiens, UniProt P35372) | 100
COC(=O)C1(CCSC)N=CN(CCc2ccccc2)C1CC1CCC(C(c2ccc(F)cc2)N(C)C)CC1 (stereo not drawn) [Example 133] | human μ-opiate receptor (Homo sapiens, UniProt P35372) | 84
